Would you kindly list IC50 for each of these compounds?
Experiment: DPPH radical reduction by ethanolic solutions of eugenol and EDChA (IC50)
Type: biochemical
Details: ethanolic solution, 10 min incubation, 517 nm; read-out: IC50, concentration reducing 50% of free radicals (DPPH method)
Answers are plain numbers, in µM.

C=CCc1ccc(OC(=O)C(Cl)Cl)c(OC)c1 [EDChA, eugenyl dichloroacetate] :: 4280

Shifting focus to the compound that follows.
// lookup IC50 for C=CCc1ccc(O)c(OC)c1
6.1
